Measured MIC, listed per entry for reference.
Tested on: Klebsiella pneumoniae
assay_details: Antibacterial activity against Klebsiella pneumoniae ATCC 13883 assessed as growth inhibition by broth dilution method
Assay type: functional

| smiles | MIC |
| --- | --- |
| CCCCCCCC(=O)N[C@@H](C(=O)N[C@H](CCN)C(=O)NCC(=O)N[C@H](CO)C(=O)N[C@H](Cc1c[nH]c2ccccc12)C(=O)N[C@@H](CO)C(=O)N[C@@H](CCN)C(=O)N[C@H](CCN)C(=O)N[C@@H](Cc1ccccc1)C(=O)N[C@@H](CCC(=O)O)C(=O)N[C@H](C(=O)N[C@@H](C(=O)N[C@@H](C)C(=O)O)[C@@H](C)CC)C(C)C)C(C)C | 3.13 µg/mL |
| CC[C@H](C)CC[C@@H](O)CC(=O)N[C@@H](C(=O)N[C@H](CCN)C(=O)NCC(=O)N[C@H](CO)C(=O)N[C@H](Cc1c[nH]c2ccccc12)C(=O)N[C@@H](CO)C(=O)N[C@@H](CCN)C(=O)N[C@H](CCN)C(=O)N[C@@H](Cc1ccccc1)C(=O)N[C@@H](CCC(=O)O)C(=O)N[C@H](C(=O)N[C@@H](C(=O)N[C@@H](C)C(=O)O)[C@@H](C)CC)C(C)C)C(C)C | 3.13 µg/mL |
| CC[C@H](C)[C@@H](NC(=O)[C@@H](NC(=O)[C@H](CCC(=O)O)NC(=O)[C@H](Cc1ccccc1)NC(=O)[C@@H](CCN)NC(=O)[C@H](CCN)NC(=O)[C@H](CO)NC(=O)[C@@H](Cc1c[nH]c2ccccc12)NC(=O)[C@@H](CO)NC(=O)CNC(=O)[C@@H](CCN)NC(=O)[C@H](NC(=O)CCC1c2ccccc2-c2ccccc21)C(C)C)C(C)C)C(=O)N[C@@H](C)C(=O)O | 100 µg/mL |

Data origin: ChEMBL document CHEMBL3112395
